target: Sphingosine 1-phosphate receptor 1 (Homo sapiens, UniProt P21453); test: Agonist activity at human S1P1 receptor; type: functional
Sequence (P21453 whole entry): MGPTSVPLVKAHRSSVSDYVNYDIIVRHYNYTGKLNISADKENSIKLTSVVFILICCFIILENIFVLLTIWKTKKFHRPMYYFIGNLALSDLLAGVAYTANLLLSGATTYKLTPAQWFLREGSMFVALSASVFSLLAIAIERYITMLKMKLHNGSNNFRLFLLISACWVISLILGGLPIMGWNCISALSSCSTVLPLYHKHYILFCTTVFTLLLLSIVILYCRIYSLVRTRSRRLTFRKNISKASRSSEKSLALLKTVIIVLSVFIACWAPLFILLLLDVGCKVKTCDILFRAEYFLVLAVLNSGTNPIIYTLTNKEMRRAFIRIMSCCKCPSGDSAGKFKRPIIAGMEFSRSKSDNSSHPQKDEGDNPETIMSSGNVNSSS
pEC50: −log10 of the molar value.
Known pEC50 of a selection of molecules
measure.name: pEC50

# query.smiles, result.number
data = [
    ("CCN(c1ccc2[nH]ncc2c1)S(=O)(=O)c1cc(C(F)(F)F)cc(C(F)(F)F)c1", 6.43),
    ("FC(F)(F)c1cc(-c2nc(-c3ccc4[nH]ncc4c3)no2)cc(C(F)(F)F)c1", 8.03),
    ("C=CCN(c1ccccc1)S(=O)(=O)c1cc(Cl)cc(Cl)c1", 8.17),
]

* * *

test: Oral bioavailability in Sprague-Dawley rat at 3 mg/kg; format: ADME, organism-based; conditions: in vivo
measure.name: bioavailability (%)

# query.smiles, measure.name, result.number
rows = [
    ("N#Cc1cc(OC(F)(F)F)cc(-c2nc(-c3ccc4c(c3)CCN4C(=O)CCC(=O)O)no2)c1", "bioavailability", 32.8),
]

* * *

Catalogue of compounds with associated half-life
assay: Metabolic stability in human liver microsomes assessed as half life; type: ADME, Microsome

# query.smiles, half-life
measured = [
    ("O=C(O)CCC(=O)N1CCc2cc(-c3noc(-c4cc(C(F)(F)F)cc(C(F)(F)F)c4)n3)ccc21", "> 1 h"),
    ("N#Cc1cc(OC(F)(F)F)cc(-c2nc(-c3ccc4c(c3)CCN4C(=O)CCC(=O)O)no2)c1", "> 1 h"),
]

* * *

assay: Cmax in Sprague-Dawley rat at 2 mg/kg, iv and 3 mg/kg, po; type: ADME, organism-based; details: in vivo

# query.smiles, Cmax / ng/mL
measured = [
    ("N#Cc1cc(OC(F)(F)F)cc(-c2nc(-c3ccc4c(c3)CCN4C(=O)CCC(=O)O)no2)c1", 3820),
]

* * *

test: AUC (0 to last) in Sprague-Dawley rat at 2 mg/kg, iv and 3 mg/kg, po; type: ADME, organism-based; conditions: plasma
measure.name: AUC(0-t) (ng·h/mL)

# query.smiles, result.number
data = [
    ("N#Cc1cc(OC(F)(F)F)cc(-c2nc(-c3ccc4c(c3)CCN4C(=O)CCC(=O)O)no2)c1", 20200),
]

* * *

List of pEC50 values.
target: UniProt:P21453; assay: Agonist activity at human S1P1 receptor expressed in HEK293 cells assessed as inhibition of forskolin-stimulated cAMP production after 1 hr by HTRF assay; format: functional, cell-based
pEC50: −log10 of the molar value.

# query.smiles, pEC50
data = [
    ("FC(F)(F)c1cc(-c2nc(N3CCc4[nH]ncc4C3)no2)cc(C(F)(F)F)c1", 7.62),
    ("O=C(O)CCCn1ncc2c1CCN(c1noc(-c3cc(C(F)(F)F)cc(C(F)(F)F)c3)n1)C2", 6.43),
    ("FC(F)(F)c1cc(-c2nc(-c3ccc4[nH]ccc4c3)no2)cc(C(F)(F)F)c1", 7.12),
    ("N[C@@H](CC(=O)N1CCc2cc(-c3noc(-c4cc(C(F)(F)F)cc(C(F)(F)F)c4)n3)ccc21)C(=O)O", 8.79),
    ("O=C(O)CCC(=O)n1ccc2cc(-c3noc(-c4cc(C(F)(F)F)cc(C(F)(F)F)c4)n3)ccc21", 7.39),
    ("COc1ccc(-c2nc(-c3ccc4c(c3)CCN4C(=O)CCC(=O)O)no2)cc1Cl", 7.96),
    ("COc1cc(-c2nc(-c3ccc4c(c3)CCN4C(=O)CCC(=O)O)no2)ccc1OC(F)F", 8.82),
    ("CC(C)Oc1ccc(-c2nc(-c3ccc4c(c3)CCN4C(=O)CCC(=O)O)no2)cc1C#N", 8.96),
    ("O=C(O)CCCn1ncc2cc(-c3noc(-c4cc(C(F)(F)F)cc(C(F)(F)F)c4)n3)ccc21", 8.31),
]

* * *

target: Cytochrome P450 2D6 (Homo sapiens, UniProt P10635)
Sequence (P10635 whole entry): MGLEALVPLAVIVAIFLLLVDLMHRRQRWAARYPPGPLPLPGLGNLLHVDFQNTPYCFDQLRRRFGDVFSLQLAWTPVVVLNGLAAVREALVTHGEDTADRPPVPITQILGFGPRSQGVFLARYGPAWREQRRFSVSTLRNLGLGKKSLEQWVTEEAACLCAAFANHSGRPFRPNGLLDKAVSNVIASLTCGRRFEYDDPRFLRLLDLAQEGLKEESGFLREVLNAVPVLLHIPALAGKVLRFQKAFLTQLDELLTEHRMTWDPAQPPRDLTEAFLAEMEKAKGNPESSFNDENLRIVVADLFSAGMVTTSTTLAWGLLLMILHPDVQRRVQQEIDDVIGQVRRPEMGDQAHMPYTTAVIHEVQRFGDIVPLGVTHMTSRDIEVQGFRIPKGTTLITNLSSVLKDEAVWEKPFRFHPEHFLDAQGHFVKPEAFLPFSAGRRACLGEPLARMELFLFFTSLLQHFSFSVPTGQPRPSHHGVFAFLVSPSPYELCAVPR
pIC50: −log10 of the molar value.

# query.smiles, tested.system, pIC50
records = [
    ("N#Cc1cc(OC(F)(F)F)cc(-c2nc(-c3ccc4c(c3)CCN4C(=O)CCC(=O)O)no2)c1", "Cytochrome P450 2D6 (Homo sapiens, UniProt P10635)", "< 4.30"),
]

* * *

target: Sphingosine 1-phosphate receptor 2 (Homo sapiens, UniProt O95136); test: Agonist activity at recombinant human S1P2 receptor expressed in HEK293 cells after 2 hrs by beta-arrestin assay
Sequence (O95136 whole entry): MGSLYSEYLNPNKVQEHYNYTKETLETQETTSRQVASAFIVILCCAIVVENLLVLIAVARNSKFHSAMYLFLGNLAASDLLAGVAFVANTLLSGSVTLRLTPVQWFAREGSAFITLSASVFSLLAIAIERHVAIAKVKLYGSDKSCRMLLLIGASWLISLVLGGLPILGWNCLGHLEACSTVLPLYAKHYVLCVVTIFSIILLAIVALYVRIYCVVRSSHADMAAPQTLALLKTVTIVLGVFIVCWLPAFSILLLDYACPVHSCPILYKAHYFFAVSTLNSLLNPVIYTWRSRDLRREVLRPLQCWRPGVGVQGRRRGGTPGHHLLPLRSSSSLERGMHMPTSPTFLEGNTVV
pEC50: −log10 of the molar value.
measure.name: pEC50

# query.smiles, result
rows = [
    ("N#Cc1cc(OC(F)(F)F)cc(-c2nc(-c3ccc4c(c3)CCN4C(=O)CCC(=O)O)no2)c1", "< 4.00"),
    ("O=C(O)CCC(=O)N1CCc2cc(-c3noc(-c4cc(C(F)(F)F)cc(C(F)(F)F)c4)n3)ccc21", "< 4.00"),
]

* * *

target: Sphingosine 1-phosphate receptor 1 (Homo sapiens); test: Agonist activity at human S1P1 receptor expressed in HEK293 cells assessed as inhibition of forskolin-stimulated cAMP production after 1 hr by HTRF assay; type: functional, cell-based
pEC50: −log10 of the molar value.

# query.smiles, tested.system, pEC50
measured = [
    ("FC(F)(F)c1cc(-c2nc(-c3ccc4c(c3)CCN4)no2)cc(C(F)(F)F)c1", "Sphingosine 1-phosphate receptor 1 (Homo sapiens)", 7.43),
    ("CCc1ccc(-c2nc(-c3ccc4c(c3)CCN4C(=O)CCC(=O)O)no2)cc1C(F)(F)F", "Sphingosine 1-phosphate receptor 1 (Homo sapiens)", 8.57),
    ("O=C(O)CCC(=O)N1CCc2cc(-c3noc(-c4ccc(Cl)c(OC(F)(F)F)c4)n3)ccc21", "Sphingosine 1-phosphate receptor 1 (Homo sapiens)", 8.28),
    ("O=C(O)CCCC(=O)N1CCc2cc(-c3noc(-c4cc(C(F)(F)F)cc(C(F)(F)F)c4)n3)ccc21", "Sphingosine 1-phosphate receptor 1 (Homo sapiens)", 8.18),
    ("COc1ccc2c(c1)CCN(c1noc(-c3cc(C(F)(F)F)cc(C(F)(F)F)c3)n1)C2", "Sphingosine 1-phosphate receptor 1 (Homo sapiens)", 9.00),
    ("O=C(O)CCc1nc2cc(-c3noc(-c4cc(C(F)(F)F)cc(C(F)(F)F)c4)n3)ccc2[nH]1", "Sphingosine 1-phosphate receptor 1 (Homo sapiens)", 8.92),
    ("O=C(O)CCN1CCc2cc(-c3noc(-c4cc(C(F)(F)F)cc(C(F)(F)F)c4)n3)ccc21", "Sphingosine 1-phosphate receptor 1 (Homo sapiens)", 8.21),
    ("CC(C)Oc1ccc(-c2nc(-c3ccc4c(c3)CCN4C(=O)CCC(=O)O)no2)cc1Br", "Sphingosine 1-phosphate receptor 1 (Homo sapiens)", 8.40),
    ("N#Cc1cc(-c2nc(-c3ccc4c(c3)CCN4C(=O)CCC(=O)O)no2)ccc1OC1CCCC1", "Sphingosine 1-phosphate receptor 1 (Homo sapiens)", 7.74),
]

* * *

target: Cytochrome P450 3A4 (Homo sapiens, UniProt P08684)
Sequence (P08684 whole entry): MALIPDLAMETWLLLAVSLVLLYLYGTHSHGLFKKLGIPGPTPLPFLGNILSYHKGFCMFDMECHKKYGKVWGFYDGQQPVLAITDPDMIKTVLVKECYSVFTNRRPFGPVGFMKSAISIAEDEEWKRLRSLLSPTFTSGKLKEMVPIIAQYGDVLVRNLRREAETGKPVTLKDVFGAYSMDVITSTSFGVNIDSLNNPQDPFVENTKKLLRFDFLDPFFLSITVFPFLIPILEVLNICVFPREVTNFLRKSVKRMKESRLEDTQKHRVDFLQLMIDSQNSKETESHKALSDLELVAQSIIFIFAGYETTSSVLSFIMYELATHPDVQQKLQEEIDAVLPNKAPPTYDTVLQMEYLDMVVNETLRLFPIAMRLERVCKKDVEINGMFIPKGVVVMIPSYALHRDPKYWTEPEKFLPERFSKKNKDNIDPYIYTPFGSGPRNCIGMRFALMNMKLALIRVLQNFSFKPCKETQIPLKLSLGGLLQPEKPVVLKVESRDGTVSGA
pIC50: −log10 of the molar value.

# query.smiles, tested.system, pIC50
rows = [
    ("O=C(O)CCC(=O)N1CCc2cc(-c3noc(-c4cc(C(F)(F)F)cc(C(F)(F)F)c4)n3)ccc21", "Cytochrome P450 3A4 (Homo sapiens, UniProt P08684)", "< 4.30"),
]

* * *

target: Sphingosine 1-phosphate receptor 1 (Homo sapiens, UniProt P21453); experiment: Agonist activity at human S1P1 receptor expressed in HEK293 cells assessed as inhibition of forskolin-stimulated cAMP production after 1 hr by HTRF assay; assay type: functional, cell-based
pEC50: −log10 of the molar value.
# Lookup of reported pEC50 keyed by entry
measure.name: pEC50

# query.smiles, op, result.number
records = [
    ("O=C(O)CCC(=O)N1CCc2cc(-c3noc(-c4ccc(C5CCCC5)c(Cl)c4)n3)ccc21", "=", 9.09),
    ("COc1ccc(-c2nc(-c3ccc4c(c3)CCN4C(=O)CCC(=O)O)no2)cc1C(F)(F)F", "=", 7.96),
    ("O=C(O)CCC(=O)N1CCc2cc(-c3noc(-c4ccc(-c5cccs5)c(C(F)(F)F)c4)n3)ccc21", "=", 8.89),
    ("FC(F)(F)c1cc(-c2nc(-c3ccc4[nH]ncc4c3)no2)cc(C(F)(F)F)c1", "=", 8.14),
    ("CC[C@H](C)Oc1ccc(-c2nc(-c3ccc4c(c3)CCN4C(=O)CCC(=O)O)no2)cc1Cl", "=", 7.35),
    ("O=C(O)CCn1ncc2cc(-c3noc(-c4cc(C(F)(F)F)cc(C(F)(F)F)c4)n3)ccc21", "=", 8.01),
    ("COc1ccc(-c2nc(-c3ccc4c(c3)CCN4C(=O)CCC(=O)O)no2)cc1C#N", "=", 8.20),
    ("FC(F)(F)c1cc(-c2nc(-c3ccc4[nH]cnc4c3)no2)cc(C(F)(F)F)c1", "=", 8.37),
    ("CCOC(=O)CCn1ncc2cc(-c3noc(-c4cc(C(F)(F)F)cc(C(F)(F)F)c4)n3)ccc21", "<", 7.00),
]
